Biological target: human gpr-54 receptor (human, UniProt Q969F8 1-398)
Sequence (Q969F8 whole entry): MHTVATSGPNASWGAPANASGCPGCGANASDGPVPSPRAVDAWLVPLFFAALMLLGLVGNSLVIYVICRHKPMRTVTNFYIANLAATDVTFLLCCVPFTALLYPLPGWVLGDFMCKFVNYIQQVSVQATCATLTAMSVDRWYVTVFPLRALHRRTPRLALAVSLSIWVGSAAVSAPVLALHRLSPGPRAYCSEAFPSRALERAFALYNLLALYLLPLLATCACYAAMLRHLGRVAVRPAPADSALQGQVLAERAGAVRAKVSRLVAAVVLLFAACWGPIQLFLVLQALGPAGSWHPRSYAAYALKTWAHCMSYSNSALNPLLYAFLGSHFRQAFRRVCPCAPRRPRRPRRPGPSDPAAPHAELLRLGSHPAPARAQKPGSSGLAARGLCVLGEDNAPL
Assay: cell-based or functional assay
Non-standard residues stand in square brackets, D forms with d. No end group written: not given here.
outcome-measure: Inhibition of IP stimulation by 10nM Agonist: % Inhibition of Max (%)
Your answer should be a plain number; it is taken to be in %.

Could you tell me which Inhibition of IP stimulation by 10nM Agonist: % Inhibition of Max is on file for Ac-[dA]NWN[dA]FGLRF-NH2 (SMILES CC(=O)N[C@H](C)C(=O)N[C@@H](CC(N)=O)C(=O)N[C@@H](Cc1c[nH]c2ccccc12)C(=O)N[C@@H](CC(N)=O)C(=O)N[C@H](C)C(=O)N[C@@H](Cc1ccccc1)C(=O)NCC(=O)N[C@@H](CC(C)C)C(=O)N[C@@H](CCCNC(=N)N)C(=O)N[C@@H](Cc1ccccc1)C(N)=O) [277] ?
57

Could you tell me which Inhibition of IP stimulation by 10nM Agonist: % Inhibition of Max is on file for Ac-[dY]NWNSFG[dW]RF-NH2 (SMILES CC(=O)N[C@H](Cc1ccc(O)cc1)C(=O)N[C@@H](CC(N)=O)C(=O)N[C@@H](Cc1c[nH]c2ccccc12)C(=O)N[C@@H](CC(N)=O)C(=O)N[C@@H](CO)C(=O)N[C@@H](Cc1ccccc1)C(=O)NCC(=O)N[C@H](Cc1c[nH]c2ccccc12)C(=O)N[C@@H](CCCNC(=N)N)C(=O)N[C@@H](Cc1ccccc1)C(N)=O) [238] ?
0

Could you tell me which Inhibition of IP stimulation by 10nM Agonist: % Inhibition of Max is on file for Ac-RRMKWKKY[dA]NWNGFG[dW]RF-NH2 [Peptide 271] ?
57

Could you tell me which Inhibition of IP stimulation by 10nM Agonist: % Inhibition of Max is on file for YNWNGFG[dW]RF-NH2 (kisspeptin-10 analogue; also called compound 210) [210] ?
64

Could you tell me which Inhibition of IP stimulation by 10nM Agonist: % Inhibition of Max is on file for Ac-[dA]NWNGFG[dL]RF-NH2 (SMILES CC(=O)N[C@H](C)C(=O)N[C@@H](CC(N)=O)C(=O)N[C@@H](Cc1c[nH]c2ccccc12)C(=O)N[C@@H](CC(N)=O)C(=O)NCC(=O)N[C@@H](Cc1ccccc1)C(=O)NCC(=O)N[C@H](CC(C)C)C(=O)N[C@@H](CCCNC(=N)N)C(=O)N[C@@H](Cc1ccccc1)C(N)=O) [276] ?
65

Could you tell me which Inhibition of IP stimulation by 10nM Agonist: % Inhibition of Max is on file for Ac-[dY][dN]WNSFGWRF-NH2 (SMILES CC(=O)N[C@H](Cc1ccc(O)cc1)C(=O)N[C@H](CC(N)=O)C(=O)N[C@@H](Cc1c[nH]c2ccccc12)C(=O)N[C@@H](CC(N)=O)C(=O)N[C@@H](CO)C(=O)N[C@@H](Cc1ccccc1)C(=O)NCC(=O)N[C@@H](Cc1c[nH]c2ccccc12)C(=O)N[C@@H](CCCNC(=N)N)C(=O)N[C@@H](Cc1ccccc1)C(N)=O) [239] ?
0

Could you tell me which Inhibition of IP stimulation by 10nM Agonist: % Inhibition of Max is on file for Ac-FGARW-NH2 (kisspeptin-10 analogue; also called acFGARW) [201] ?
69

These measurements were taken from patent US20110046068A1.
